- Assayed target: Beta-2 adrenergic receptor (Homo sapiens, UniProt P07550)
- Sequence (P07550 whole entry): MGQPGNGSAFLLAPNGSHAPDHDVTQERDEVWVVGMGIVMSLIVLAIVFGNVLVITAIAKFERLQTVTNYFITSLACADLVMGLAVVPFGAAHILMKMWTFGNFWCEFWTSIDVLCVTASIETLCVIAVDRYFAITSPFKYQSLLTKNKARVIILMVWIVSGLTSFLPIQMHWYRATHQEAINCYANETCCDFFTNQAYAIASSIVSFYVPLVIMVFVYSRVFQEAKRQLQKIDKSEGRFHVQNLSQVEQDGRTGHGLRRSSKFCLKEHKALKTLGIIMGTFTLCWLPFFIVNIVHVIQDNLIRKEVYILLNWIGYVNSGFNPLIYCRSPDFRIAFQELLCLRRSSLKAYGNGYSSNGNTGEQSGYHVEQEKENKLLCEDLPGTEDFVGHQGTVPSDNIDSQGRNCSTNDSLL
Listed here: items and their measured pKi.
Please treat pKi as minus the base-10 logarithm of the molar concentration.

Fill in the recorded pKi for this compound, with Beta-2 adrenergic receptor (Homo sapiens, UniProt P07550) as test system: "CCCN(CCC)[C@H]1CCc2c(O)cccc2C1"
4.40

# repeat for CCCN[C@H]1CCc2nc(N)sc2C1 [PRAMIPEXOLE]
4.00

# repeat for "CCCN1CCC[C@@H]2Cc3n[nH]cc3C[C@H]21"
4.00

# repeat for "COc1cc(CCNC[C@H](O)c2ccc(O)c3c2OCC(=O)N3)ccc1OCCCc1ccccc1"
9.60

# repeat for "CCCN(CCC)[C@@H]1CCc2ccc(O)cc2C1"
4.07

# repeat for "COc1ccccc1OCCNC[C@@H](O)c1ccc(O)c(O)c1"
6.07

# repeat for CCC(NC(C)C)C(O)c1ccc(O)c2[nH]c(=O)ccc12 (stereo not drawn)
7.48

# repeat for "COc1ccccc1OCCNCCc1ccc(O)c(O)c1"
6.21

====

- Assayed target: D(2) dopamine receptor (Homo sapiens)
- Assay name: Displacement of [3H]spiperone from human D2L receptor expressed in CHO cells
- Type: cell-based
Please use the following Ki ranges when assigning a class: class A (below 100 nM), class B (100 nM to below 600 nM), class C (600 nM or more)

Solved entries (count: 3):
// return the class label for "COc1ccccc1OCCNC[C@H](O)c1ccc(O)c(O)c1"
class C

# repeat for "COc1cc(CCNCCc2ccc(O)c(O)c2)ccc1OCCCc1ccccc1"
class A

# repeat for "COc1cc(CCNC[C@@H](O)c2ccc(O)c(O)c2)ccc1OCCCc1ccccc1"
class C

Next:
// return the class label for "COc1ccccc1OCCNC[C@@H](O)c1ccc(O)c(O)c1"
class B

# repeat for "COc1cc(CCNC[C@H](O)c2ccc(O)c(O)c2)ccc1OCCCc1ccccc1"
class B

# repeat for "COc1cc(CCNC[C@H](O)c2ccc(O)c3c2OCC(=O)N3)ccc1OCCCc1ccccc1"
class B

====

- Assayed target: D(2) dopamine receptor (Homo sapiens, UniProt P14416)
- Sequence (P14416 whole entry): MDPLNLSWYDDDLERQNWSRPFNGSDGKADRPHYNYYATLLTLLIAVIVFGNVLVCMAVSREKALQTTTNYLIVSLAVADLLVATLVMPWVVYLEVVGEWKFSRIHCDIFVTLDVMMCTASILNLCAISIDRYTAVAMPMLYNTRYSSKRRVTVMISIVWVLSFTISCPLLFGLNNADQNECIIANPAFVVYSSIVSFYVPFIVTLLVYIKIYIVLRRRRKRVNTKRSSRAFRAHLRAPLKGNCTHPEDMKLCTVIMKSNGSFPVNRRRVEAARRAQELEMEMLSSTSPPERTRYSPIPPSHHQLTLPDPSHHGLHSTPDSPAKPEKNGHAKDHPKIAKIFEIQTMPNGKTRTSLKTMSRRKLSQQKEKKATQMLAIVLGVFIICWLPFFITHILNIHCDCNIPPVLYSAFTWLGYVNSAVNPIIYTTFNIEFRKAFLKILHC
- Assay name: Agonist activity at human D2S receptor expressed in HEK293 cells cotransfected with Gqi5 protein assessed as [3H]IP3 accumulation after 120 mins by scintillation counting assay in presence of myo-[3H]-inositol
- Type: functional, cell-based
Listed here: items and their measured EC50.
Field: numeric (nM). Do not append units.

Which EC50 is reported for this compound? "COc1ccccc1OCCNCCc1ccc(O)c(O)c1"
25

# repeat for "COc1cc(CCNCCc2ccc(O)c3[nH]c(=O)ccc23)ccc1OCCCc1ccccc1"
17

# repeat for "COc1cc(CCNCCc2ccc(O)c3c2OCC(=O)N3)ccc1OCCCc1ccccc1"
2.6

# repeat for "COc1cc(CCNC[C@H](O)c2ccc(O)c(O)c2)ccc1OCCCc1ccccc1"
200

# repeat for "COc1cc(CCNC[C@H](O)c2ccc(O)c3c2OCC(=O)N3)ccc1OCCCc1ccccc1"
98

Next:
Which EC50 is reported for this compound? "COc1ccccc1OCCNC[C@H](O)c1ccc(O)c(O)c1"
170

# repeat for "COc1cc(CCNCCc2ccc(O)c(O)c2)ccc1OCCCc1ccccc1"
110

# repeat for "COc1cc(CCNC[C@@H](O)c2ccc(O)c3c2OCC(=O)N3)ccc1OCCCc1ccccc1"
7.3

====

Consider compounds characterized by their pKi with Beta-1 adrenergic receptor (Mus musculus, UniProt P34971).
Sequence (P34971 whole entry): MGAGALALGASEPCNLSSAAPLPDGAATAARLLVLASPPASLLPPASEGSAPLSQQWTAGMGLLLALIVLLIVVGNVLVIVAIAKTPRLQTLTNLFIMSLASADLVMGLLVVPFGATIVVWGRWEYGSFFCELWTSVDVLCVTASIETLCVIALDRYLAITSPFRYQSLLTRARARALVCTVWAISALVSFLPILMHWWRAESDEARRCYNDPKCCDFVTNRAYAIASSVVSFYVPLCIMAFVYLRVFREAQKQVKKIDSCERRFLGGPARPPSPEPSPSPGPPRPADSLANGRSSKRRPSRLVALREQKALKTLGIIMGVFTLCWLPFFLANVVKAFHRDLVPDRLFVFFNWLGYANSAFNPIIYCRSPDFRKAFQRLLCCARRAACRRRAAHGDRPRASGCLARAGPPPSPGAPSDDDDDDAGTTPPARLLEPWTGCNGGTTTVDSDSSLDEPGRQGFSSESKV
Please treat pKi as minus the base-10 logarithm of the molar concentration.

Which pKi is reported for this compound? "COc1ccccc1OCCNC[C@@H](O)c1ccc(O)c(O)c1"
5.82

# repeat for "COc1cc(CCNCCc2ccc(O)c3c2OCC(=O)N3)ccc1OCCCc1ccccc1"
7.10

# repeat for "COc1cc(CCNCCc2ccc(O)c(O)c2)ccc1OCCCc1ccccc1"
5.64

Kindly review the next compound as well.
Which pKi is reported for this compound? "COc1cc(CCNC[C@H](O)c2ccc(O)c(O)c2)ccc1OCCCc1ccccc1"
7.07

====

- Assayed target: UniProtKB P21728
- Sequence (P21728 whole entry): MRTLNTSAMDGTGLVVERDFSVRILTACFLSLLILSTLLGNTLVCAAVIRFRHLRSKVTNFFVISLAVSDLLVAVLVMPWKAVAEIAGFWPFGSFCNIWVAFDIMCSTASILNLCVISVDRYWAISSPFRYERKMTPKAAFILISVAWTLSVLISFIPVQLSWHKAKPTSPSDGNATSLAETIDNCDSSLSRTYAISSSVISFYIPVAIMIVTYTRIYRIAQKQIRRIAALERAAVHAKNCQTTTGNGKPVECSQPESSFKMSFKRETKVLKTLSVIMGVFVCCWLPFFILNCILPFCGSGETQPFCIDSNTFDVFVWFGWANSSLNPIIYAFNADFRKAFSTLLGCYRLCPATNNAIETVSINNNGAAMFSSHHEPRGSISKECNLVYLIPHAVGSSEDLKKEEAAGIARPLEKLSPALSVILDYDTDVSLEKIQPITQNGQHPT
- Assay name: Displacement of [3H]SCH23390 from human D1 receptor expressed in HEK293 cells
Assay readout: pKi
Please treat pKi as minus the base-10 logarithm of the molar concentration.

Which pKi is reported for this compound? "COc1ccccc1OCCNCCc1ccc(O)c(O)c1"
6.68

Kindly review the next compound as well.
Which pKi is reported for this compound? "COc1cc(CCNC[C@H](O)c2ccc(O)c3[nH]c(=O)ccc23)ccc1OCCCc1ccccc1"
4.96

====

- Assayed target: Beta-2 adrenergic receptor (Homo sapiens)
- Assay name: Agonist activity at human beta2 receptor expressed in HEK293 cells cotransfected with Gqs5 protein assessed as [3H]IP3 accumulation after 120 mins by scintillation counting assay in presence of myo-[3H]-inositol
- Assay type: functional, cell-based
Listed here: items and their measured log10 EC50.
Base-10 log of EC50, unit nM.

Fill in the recorded log10 EC50 for this molecule, with Beta-2 adrenergic receptor (Homo sapiens) as test system: "COc1cc(CCNC[C@@H](O)c2ccc(O)c3c2OCC(=O)N3)ccc1OCCCc1ccccc1"
3.00

# repeat for "COc1cc(CCNC[C@H](O)c2ccc(O)c(O)c2)ccc1OCCCc1ccccc1"
3.71

# repeat for "COc1cc(CCNCCc2ccc(O)c(O)c2)ccc1OCCCc1ccccc1"
4.67

# repeat for "COc1cc(CCNC[C@@H](O)c2ccc(O)c(O)c2)ccc1OCCCc1ccccc1"
3.41

# repeat for "COc1ccccc1OCCNC[C@H](O)c1ccc(O)c(O)c1"
2.08

Next:
Fill in the recorded log10 EC50 for this molecule, with Beta-2 adrenergic receptor (Homo sapiens) as test system: "COc1cc(CCNC[C@@H](O)c2ccc(O)c3[nH]c(=O)ccc23)ccc1OCCCc1ccccc1"
2.92

# repeat for "COc1cc(CCNC[C@H](O)c2ccc(O)c3c2OCC(=O)N3)ccc1OCCCc1ccccc1"
0.85

# repeat for "COc1ccccc1OCCNCCc1ccc(O)c(O)c1"
2.86

# repeat for "COc1ccccc1OCCNC[C@@H](O)c1ccc(O)c(O)c1"
3.15

# repeat for "COc1cc(CCNC[C@H](O)c2ccc(O)c3[nH]c(=O)ccc23)ccc1OCCCc1ccccc1"
0.79

====

- Assayed target: D(2) dopamine receptor (Homo sapiens, UniProt P14416)
- Assay name: Agonist activity at ARMS2-PK-tagged D2S receptor (unknown origin) transfected in HEK293 cells after 5 hrs by beta-arrestin assay
- Type: cell-based
Assay readout: EC50 (µM)
Field: numeric (µM). Do not append units.

Example compounds with recorded EC50:
Which EC50 is reported for this compound? "COc1cc(CCNCCc2ccc(O)c(O)c2)ccc1OCCCc1ccccc1"
2.6

# repeat for "COc1cc(CCNC[C@H](O)c2ccc(O)c3c2OCC(=O)N3)ccc1OCCCc1ccccc1"
13

# repeat for "COc1cc(CCNCCc2ccc(O)c3[nH]c(=O)ccc23)ccc1OCCCc1ccccc1"
0.24

# repeat for "COc1cc(CCNC[C@@H](O)c2ccc(O)c3c2OCC(=O)N3)ccc1OCCCc1ccccc1"
8.8

Kindly review the next compound as well.
Which EC50 is reported for this compound? "COc1cc(CCNCCc2ccc(O)c3c2OCC(=O)N3)ccc1OCCCc1ccccc1"
1.1

====

- Assay name: Displacement of [3H]prazosine from alpha-1 receptor in porcine cortical membranes
- Format: cell membranes, Sus scrofa
Listed here: items and their measured pKi.
Please treat pKi as minus the base-10 logarithm of the molar concentration.

Which pKi is reported for this molecule? "COc1cc(CCNCCc2ccc(O)c(O)c2)ccc1OCCCc1ccccc1"
6.40

# repeat for "COc1cc(CCNC[C@@H](O)c2ccc(O)c3c2OCC(=O)N3)ccc1OCCCc1ccccc1"
5.96

# repeat for "COc1cc(CCNC[C@H](O)c2ccc(O)c3[nH]c(=O)ccc23)ccc1OCCCc1ccccc1"
5.85

# repeat for "COc1cc(CCNCCc2ccc(O)c3c2OCC(=O)N3)ccc1OCCCc1ccccc1"
6.92

# repeat for "COc1ccccc1OCCNC[C@H](O)c1ccc(O)c(O)c1"
7.30

Next:
Which pKi is reported for this molecule? "COc1ccccc1OCCNCCc1ccc(O)c(O)c1"
8.33

# repeat for "COc1cc(CCNCCc2ccc(O)c3[nH]c(=O)ccc23)ccc1OCCCc1ccccc1"
6.04

====

- Assayed target: D(2) dopamine receptor (Homo sapiens, UniProt P14416)
- Assay name: Displacement of [3H]spiperone from human D2S receptor expressed in CHO cells
- Format: cell-based
Assay readout: log10 of Ki (log10 of the value in nM)
Base-10 log of Ki, unit nM.

Which log10 of Ki is reported for this compound? "COc1cc(CCNC[C@H](O)c2ccc(O)c3[nH]c(=O)ccc23)ccc1OCCCc1ccccc1"
3.51

# repeat for CC(C)NCC(O)c1ccc(O)c(O)c1 (stereo not given) [ISOPROTERENOL]
4.08

# repeat for CCC(NC(C)C)C(O)c1ccc(O)c2[nH]c(=O)ccc12 (stereo not given) [PROCATEROL]
4.93

# repeat for "COc1cc(CCNCCc2ccc(O)c3[nH]c(=O)ccc23)ccc1OCCCc1ccccc1"
2.20

# repeat for NC[C@H](O)c1ccc(O)c(O)c1 [NOREPINEPHRINE]
3.11

# repeat for "COc1cc(CCNCCc2ccc(O)c(O)c2)ccc1OCCCc1ccccc1"
2.08
